Origin of values: the supplement of paper PMC9233669

- Tested on: biotinyl-Val-oxazolone
- Protocol details: self-aminoacylation, catalytic enhancement (BVO) (fold over background); higher = more active; k-Seq, kA / k0A0; sequences stand for … in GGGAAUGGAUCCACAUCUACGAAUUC…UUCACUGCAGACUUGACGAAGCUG
Variants at the floor of the assay were thinned out.
Measurement name: self-aminoacylation
Lab note: record the figure alone, no unit after it.

Example sequences with recorded self-aminoacylation:
AUUACCCUGGUGAUAGAGUGA [Fam2.1 aminoacylation ribozyme variant] : 3.62
AAGUUUGCUACUAGUCGCAUG [Fam3.1 aminoacylation ribozyme variant] : 1.09
CCAAACUUCAAGCAUUCGGUC [Fam1B.1 aminoacylation ribozyme variant] : 1.86

Please give measured self-aminoacylation of the following entry: AUUACCCUGGACAUCUAGUGA [Fam2.1 aminoacylation ribozyme variant]
2.71

Quote self-aminoacylation reported for AUCACCCUGCUCAUCGAGUGA [Fam2.1 aminoacylation ribozyme variant] please.
1.9

Input CCACACUCCAAGCACUCGGUC [Fam1B.1 aminoacylation ribozyme variant] , output reported self-aminoacylation.
1.24

* * *

- System: biotinyl-Val-oxazolone
- Protocol details: self-aminoacylation, catalytic enhancement (BVO) (fold over background); higher = more active; k-Seq, kA / k0A0; sequences stand for … in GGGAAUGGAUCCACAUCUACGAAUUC…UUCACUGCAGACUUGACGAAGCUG
This sample holds only a part of the variants without activity.
Mark FALSE for self-aminoacylation values under 1, and TRUE for everything at or above.

// below: answered sequences
ACUACCGUGGUCAUCGAGUGA [Fam2.1 aminoacylation ribozyme variant] : TRUE
AUUAACCUGGUCAUCUAGUGA [Fam2.1 aminoacylation ribozyme variant] : TRUE
CCACACCUCAAGCCAUCGGUC [Fam1B.1 aminoacylation ribozyme variant] : TRUE
CCUCACUUCAUGCAAUCGGUC [Fam1B.1 aminoacylation ribozyme variant] : FALSE
AAGUUUUCUAAUAGUCGCCAG [Fam3.1 aminoacylation ribozyme variant] : TRUE
CCACACUUAAAGCAAUAGGUC [Fam1B.1 aminoacylation ribozyme variant] : FALSE
CUACUUCAAACAAUCGGGCUU [Fam1A.1 aminoacylation ribozyme variant] : TRUE
AUUAUCCCGGUCAUCGAGUGA [Fam2.1 aminoacylation ribozyme variant] : TRUE

Could you verify whether the entry AUUCACCUAGGUGAUCUGGUG [Fam2.2 aminoacylation ribozyme variant] shows self-aminoacylation of no less than 1?
TRUE

Quick check, self-aminoacylation >= 1? AUUCACUUAGGUCAUCUGGUG [Fam2.2 aminoacylation ribozyme variant]
TRUE

* * *

Let's look at some sequences and their measured self-aminoacylation.
- System: biotinyl-Phe-oxazolone
- Protocol details: self-aminoacylation, catalytic enhancement (BFO) (fold over background); higher = more active; k-Seq, kA / k0A0; sequences stand for … in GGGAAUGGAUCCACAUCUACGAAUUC…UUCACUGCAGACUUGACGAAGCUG
Fewer inactive variants are shown than the library holds.
// print number alone

AUUCACAUAGUUCAUCGGGUG [Fam2.2 aminoacylation ribozyme variant] : 19.2

Give biotinyl-Phe-oxazolone self-aminoacylation for the following sequence: AUGUUUGCUAAUGGUCGCAAG [Fam3.1 aminoacylation ribozyme variant]
1.63

Quote self-aminoacylation with test system biotinyl-Phe-oxazolone for CUACUUCAAACAAGCGUUCUG [Fam1A.1 aminoacylation ribozyme variant]
0.391

Fill in: self-aminoacylation on biotinyl-Phe-oxazolone, entry CUACUUCAAAUAAUUGGUCUG [Fam1A.1 aminoacylation ribozyme variant]
1.19

Enter self-aminoacylation (test system biotinyl-Phe-oxazolone) for AAGUUUGCGAAUAGUCGCAGG [Fam3.1 aminoacylation ribozyme variant]
4.04

State recorded self-aminoacylation with biotinyl-Phe-oxazolone, entry AUUACCCUGGUCGUCGAGCGA [Fam2.1 aminoacylation ribozyme variant] , no comment.
3.35

Check biotinyl-Phe-oxazolone data and give self-aminoacylation for CCACACUUCAAGCAAUUGAUC [Fam1B.1 aminoacylation ribozyme variant] .
0.853

Please look at CUUACCCUGGUCAUCGACUGA [Fam2.1 aminoacylation ribozyme variant] and tell me its recorded self-aminoacylation on biotinyl-Phe-oxazolone.
0.459

Give self-aminoacylation only, for CUUCACCCAGGUCAUCGGGUG [Fam2.2 aminoacylation ribozyme variant] , using biotinyl-Phe-oxazolone data.
25.2

* * *

- Test system: biotinyl-Leu-oxazolone
- Protocol details: self-aminoacylation, catalytic enhancement (BLO) (fold over background); higher = more active; k-Seq, kA / k0A0; sequences stand for … in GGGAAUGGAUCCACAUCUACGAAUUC…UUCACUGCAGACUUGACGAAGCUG
Fewer inactive variants are shown than the library holds.
Measurement name: self-aminoacylation
Field format: numeric only.

Here is how some sequences turned out for self-aminoacylation.
CUACUUCAAACAAUCGGCCUG [Fam1A.1 aminoacylation ribozyme variant] : 2.86
UUUAUCCUGGUCAUCGAGUGA [Fam2.1 aminoacylation ribozyme variant] : 9.68
CUUAACCUAGGUCAUCGGGUG [Fam2.2 aminoacylation ribozyme variant] : 4.78

State self-aminoacylation (biotinyl-Leu-oxazolone) of AUUUCCCUGGUCUUCGAGUGA [Fam2.1 aminoacylation ribozyme variant] .
7.28

Report the value of self-aminoacylation obtained on biotinyl-Leu-oxazolone for CCACACGUCAAACAAUCGGUC [Fam1B.1 aminoacylation ribozyme variant] .
1.45

State, for biotinyl-Leu-oxazolone, measured self-aminoacylation of the sequence listed here: CUAAUUCAAACAAUCGGUCUU [Fam1A.1 aminoacylation ribozyme variant]
0.629

Give self-aminoacylation for GCACACUUCAAGCAAUCGGUA [Fam1B.1 aminoacylation ribozyme variant] tested on biotinyl-Leu-oxazolone.
2.26

Name the value of self-aminoacylation reported for ACUAACCUGGUCAUCGAGUGA [Fam2.1 aminoacylation ribozyme variant] when tested on biotinyl-Leu-oxazolone.
3.83

* * *

- Tested on: biotinyl-Met-oxazolone
- Protocol details: self-aminoacylation, catalytic enhancement (BMO) (fold over background); higher = more active; k-Seq, kA / k0A0; sequences stand for … in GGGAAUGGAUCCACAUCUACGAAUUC…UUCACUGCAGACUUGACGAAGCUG
Variants at the floor of the assay were thinned out.
Recorded measurements of self-aminoacylation, one per entry
No unit in the answer, please; the number alone is enough.

UCACACUUCAAGCAAUCGGUA [Fam1B.1 aminoacylation ribozyme variant] : 1.1
AUUGCCCUAGUCAUCGAGUGA [Fam2.1 aminoacylation ribozyme variant] : 5.83
AAGUUUGCUAAUGGUAGCAAG [Fam3.1 aminoacylation ribozyme variant] : 0.976
AUUACCCUGGUCAUCGAUUGC [Fam2.1 aminoacylation ribozyme variant] : 0.757
AAGUUUGCUAAAAGUCUCAAG [Fam3.1 aminoacylation ribozyme variant] : 1.24

Output self-aminoacylation of AUGAGCCUGGUCAUCGAGUGA [Fam2.1 aminoacylation ribozyme variant]
5.66

Could you please provide reported self-aminoacylation for AAGUUUGCUAAUAGACGCGAG [Fam3.1 aminoacylation ribozyme variant] ? Thanks!
0.912

// Input: AUUAACCUCGGUCAUCGGGUG [Fam2.2 aminoacylation ribozyme variant] . Output its self-aminoacylation only.
5.08

Using known records, supply self-aminoacylation for AAGUUUGCUUAUAGUGGCAAG [Fam3.1 aminoacylation ribozyme variant]
0.861

Hello, please tell me recorded self-aminoacylation for this one: AUUCACCUAUGUCAUCCGGUG [Fam2.2 aminoacylation ribozyme variant]
5.26

Answer with reported self-aminoacylation of CUACUUCGAACAAUCGGUCCG [Fam1A.1 aminoacylation ribozyme variant]
1.09

Assign self-aminoacylation to the following record: UUACUUCAAACAAUCGAUCUG [Fam1A.1 aminoacylation ribozyme variant]
0.711

Retrieve self-aminoacylation measured for CCAUACUUCAAGCAAGCGGUC [Fam1B.1 aminoacylation ribozyme variant] and print it.
0.775

Look up self-aminoacylation of ACUAACCUGGUCAUCGAGUGA [Fam2.1 aminoacylation ribozyme variant] and report it.
4.84

Fill in self-aminoacylation for record CAACACUUCAAGCGAUCGGUC [Fam1B.1 aminoacylation ribozyme variant]
1.29

Please look at this sequence and report its self-aminoacylation: CUACUUCCAACAAUCGGUCUG [Fam1A.1 aminoacylation ribozyme variant]
0.722

Please supply the value of reported self-aminoacylation for the item AUUACGUUGGUCAUCGAGUGA [Fam2.1 aminoacylation ribozyme variant]
4.23

Output measured self-aminoacylation for this item: AAGCUUGCUAAUGGUCGCAAG [Fam3.1 aminoacylation ribozyme variant]
2.83

* * *

Below, each entry is listed alongside its reported self-aminoacylation.
- Test system: biotinyl-Trp-oxazolone
- Protocol details: self-aminoacylation, catalytic enhancement (BWO) (fold over background); higher = more active; k-Seq, kA / k0A0; sequences stand for … in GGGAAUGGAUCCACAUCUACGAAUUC…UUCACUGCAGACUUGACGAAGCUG
This sample holds only a part of the variants without activity.

In the examples that follow, each entry is paired with its recorded self-aminoacylation.
CCACACUUCUAGCAAUCUGUC [Fam1B.1 aminoacylation ribozyme variant] : 0.292
CUACUUCAAAGAAUCGGUCUA [Fam1A.1 aminoacylation ribozyme variant] : 0.542
AAGUUUGCUAAUUGUCGCCAG [Fam3.1 aminoacylation ribozyme variant] : 1.73
GCACACGUCAAGCAAUCGGUC [Fam1B.1 aminoacylation ribozyme variant] : 3.95

Assign self-aminoacylation to the following record: CCACGCUUCAACCAAUCGGUC [Fam1B.1 aminoacylation ribozyme variant]
40.4

State its self-aminoacylation: AUUAACCUAGGUAAUCGGGUG [Fam2.2 aminoacylation ribozyme variant]
2.42

Please report the measured self-aminoacylation for AUUCACCAAAGUCAUCGGGUG [Fam2.2 aminoacylation ribozyme variant]
13.6

Determine its reported self-aminoacylation: CCACACUUCGAGCAUUCGGUC [Fam1B.1 aminoacylation ribozyme variant]
1.54
